tested on: ACHN renal; assay: NCI-60 one-dose screen, 48 h (100 = growth as untreated, 0 = no growth, -100 = all killed); conditions: 10 µM unless noted
This is part of a sample that, as a whole, favours compounds with a hit. Of some 83,000 tested, about 20% had one in any assay. Calls of active or inactive are those of the source. How the source made its calls: active means growth percent below 10; inactive means the rest.
Provide the recorded growth for the entries that follow.

| SMILES RECORD | growth |
| --- | --- |
| CC1=C(C(=O)OCC2CCN(C(=O)OC(C)(C)C)CC2)[C@H](c2cccc(C#N)c2)C2=C(CC(C)(C)CC2=O)N1 | 35.4% (inactive) |
| CC[C@]1(O)C[C@@H]2CN(CCc3c([nH]c4ccccc34)[C@@](C(=O)OC)(c3cc4c(cc3OC)N(C)[C@H]3[C@@](O)(C(=O)OC)[C@H](OC(C)=O)[C@]5(CC)C=CCN6CC[C@]43[C@@H]65)C2)C1 | 30.1% (inactive) |

Moving on to the next compound.
Readout growth for O=C(Nc1ccsc1C(=O)NC1CCCCC1)c1ccc(F)cc1 , test system ACHN renal, was 101% (inactive)

====

system: NCI-H522 lung; assay: NCI-60 one-dose screen, 48 h; conditions: 10 µM unless noted
About 83,000 compounds went through this panel and 20% of them were active in at least one assay; those are over-represented in the sample as a whole. The source made the active and inactive calls. How the source made its calls: active means growth percent below 10; inactive means the rest.
The categories you may choose from are 1 (yes) for active, 0 (no) for inactive

Known results for compounds:
| COMPOUND | GROUP |
| --- | --- |
| O=C(COc1cc(O)c2c(=O)cc(-c3ccccc3)oc2c1)Nc1ccccc1 | 0 (no) |
| Cc1ccc(Cn2c(N3CCC(C(=O)NCc4cccs4)CC3)nc3ccccc32)cc1 | 0 (no) |
| NS(=O)(=O)c1ccc(CCN=C=S)cc1 | 1 (yes) |
| O=c1c(-c2nc3ccccc3[nH]2)cc2ccccc2n1Cc1cn(Cc2ccc(N3CCOCC3)cc2)nn1 | 0 (no) |
| COc1cc(NC(=O)CCSc2nc3ccccc3c(=O)n2CCc2ccccn2)cc(OC)c1OC | 0 (no) |
| COC(=O)[C@H]1CCCN1C(=O)[C@H]1CCCN1C(=O)[C@H](Cc1c[nH]c2ccccc12)NC(=S)Nc1cc(C(F)(F)F)cc(C(F)(F)F)c1 | 0 (no) |

[Q] Answer briefly: the call reported for Cc1nc(Nc2ccccn2)sc1C(=O)/C=C/c1ccc(Cl)cc1 in this assay.
[A] 1 (yes)

[Q] What did this assay record as the result for CC[C@H](C)[C@@H](C(=O)OC)n1cc(CNC(=O)[C@@H](Cc2ccccc2)NC(=O)OCc2ccccc2)nn1 ?
[A] 0 (no)

[Q] // outcome(item) with item = CN1C(=O)N(C)C2(c3ccccc3)OC(=S)NC12c1ccccc1 (configuration not stated)
[A] 0 (no)

[Q] How did this test come out for N[C@@H](CC/[N+]([O-])=N/O)C(=O)O ?
[A] 0 (no)

====

Kindly state growth for each of the entries shown.
Tested on: M14 melanoma
Experiment: NCI-60 one-dose screen, 48 h (100 = growth as untreated, 0 = no growth, -100 = all killed)
Details: 10 µM unless noted
Description: Growth inhibition of the M14 human tumor cell line is measured as a screen for anti-cancer activity. Cells are grown in 96 well plates and exposed to the test compound for 48 hours. Compounds are tested at a single concentration, which is 10^-5 M for most compounds. The reported endpoint is percent growth (GI% or GIPRCNT), where numbers from 0 - 100% represent growth inhibition, and numbers from -100% - 0 represent cell death. For example, a value of 40 represents 60% growth inhibition. […]
Compounds without any hit were thinned out: in the full panel of roughly 83,000, 20% have a hit.
Answers are plain numbers, in %.

| COMPOUND | growth (%) |
| --- | --- |
| CC(=O)n1cc(-c2c[nH]c3ccccc23)c(-c2ccc(Cl)cc2)n1 | 76.1 |

Give growth for each of the items listed below.
1. O=S1(=O)N(Cc2ccccc2)[C@@H](Cc2ccccc2)[C@H](O)[C@H](O)[C@H](Cc2ccccc2)N1Cc1ccccc1
2. CCN(CC)CCNC(=O)C(Cl)=C1C(Cl)=C(Cl)C(Cl)=C1Cl

[A]
1: -2.4; 2: 38.7

Give growth for each listed item.
1. O=C(Nc1ccc(F)cc1F)c1cc(Br)ccc1O
2. COc1cc(/C=C/C(=O)N2c3ccccc3CC2C)c(OC)c2c1OCO2 (stereo not drawn)
3. COC(=O)c1c2c(c(C)[n+]([O-])c1C)C(=O)C=C(NCc1ccc(F)c(F)c1)C2=O

[A]
1: 7.28; 2: 90.7; 3: -88.2

Provide each entry's growth from the list below.
1. FC(F)(F)c1cccc(Nc2nc(-c3ccccc3)nc3ncccc23)c1
2. CN1C(=O)N(C)C2C1NN=c1s/c(=C\c3ccc(Cl)cc3Cl)c(=O)n12 (stereo not drawn)
3. O=c1c2cc(F)ccc2sc2c(NCCCNCCO)nc3ccc(Cl)cc3c12
4. COc1ccc(-c2nnc(COc3ccc(C(=O)/C=C/c4ccco4)cc3)o2)cc1
5. O=C1c2cc(Br)ccc2Oc2cc([N+](=O)[O-])ccc2N1c1ccc(I)cc1F
6. OCCNc1nc(Nc2ccc(C3=NN(c4cc(Cl)cc(Cl)c4)C(c4ccc(C(F)(F)F)cc4)C3)cc2)nc(N2CCOCC2)n1 (stereo not drawn)
7. CCCCOCc1cc(CN2CCN(C)CC2)c(O)c2ncccc12

[A]
[-86.6, 7.37, 33.4, 98.8, 91.8, 90.5, 41.2]

====

Tested on: U251 CNS
Experiment: NCI-60 one-dose screen, 48 h
Conditions: 10 µM unless noted
Description: Growth inhibition of the U251 human tumor cell line is measured as a screen for anti-cancer activity. Cells are grown in 96 well plates and exposed to the test compound for 48 hours. Compounds are tested at a single concentration, which is 10^-5 M for most compounds. The reported endpoint is percent growth (GI% or GIPRCNT), where numbers from 0 - 100% represent growth inhibition, and numbers from -100% - 0 represent cell death. For example, a value of 40 represents 60% growth inhibition. […]
Compounds without any hit were thinned out: in the full panel of roughly 83,000, 20% have a hit. Active and inactive are the calls of the source. Rule for the calls: active = growth percent below 10; inactive = the rest.
# output must be one of T (active), F (inactive)

Recorded results for 5 molecules are shown here.
| MOLECULE | GROUP |
| --- | --- |
| COc1ccc(C2C3=C(COC3=O)N(CCO)c3cc4c(cc32)OCCO4)cc1 (configuration not stated) | F |
| O=C(c1nc2ccccc2[nH]1)C1C(c2ccc(F)cc2)C2CC3CCCCC3N2[C@@]12C(=O)Nc1ccc(Cl)cc12 (some centres not stated) | F |
| Cc1ccc(S(=O)(=O)c2c(COC(=O)c3cccc(C)c3)c(-c3ccccc3)nn2C)cc1 | T |
| COC(=O)c1c2c(c(C)[n+]([O-])c1C)C(=O)C=C(NCc1ccccc1)C2=O | T |
| O=C(Nc1ccc(I)cc1F)c1cc(F)ccc1O | T |

[Q] How did this test come out for CCOC(=O)c1c2c(c(C)n1Cc1ccc(OC)cc1)-c1oncc1CC2 ?
[A] F

[Q] Please let me know the test result on file for O=NN(C(=O)NC1CCC(C(=O)O)CC1)C1CCC(C(=O)O)CC1 (configuration not stated) .
[A] F

====

system: BT-549 breast; test: NCI-60 one-dose screen, 48 h; details: 10 µM unless noted
Compounds without any hit were thinned out: in the full panel of roughly 83,000, 20% have a hit. Activity calls are given as the source filed them. How the source made its calls: active means growth percent below 10; inactive means the rest.
Outcome field: choose from active, inactive

| COMPOUND | ASSAYED SYSTEM | GROUP |
| --- | --- | --- |
| COc1ccc2sc3c(NCCCN)nc4ccccc4c3c(=O)c2c1 | BT-549 breast | inactive |
| CCCCN1CCN(c2ccc3nc(-c4ccc5nc(-c6ccc(OCC)cc6)[nH]c5c4)[nH]c3c2)CC1 | BT-549 breast | inactive |
| COc1cc([C@@H]2NC(=O)NC(C)=C2C(=O)Nc2nc(-c3ccc(Cl)cc3)cs2)ccc1O | BT-549 breast | inactive |
| O=c1nc2sc3nc4ccccc4cc3cc-2s1 | BT-549 breast | inactive |
| S=C1NC2(c3ccccc3)CCC(=S)N2c2ccccc21 (stereo unspecified) | BT-549 breast | inactive |
| O=C1NC(=O)C(=Cc2cn(Cc3cn(Cc4ccc(Cl)cc4Cl)nn3)c3ccccc23)C(=O)N1 | BT-549 breast | inactive |
| COc1ccc(C2C3=C(COC3=O)N(CCO)c3cc4c(cc32)CCC4)cc1 (stereo unspecified) | BT-549 breast | inactive |
| Nc1no[n+]([O-])c1-c1nnc2c(n1)-c1ccccc1C2=O | BT-549 breast | inactive |
| CCCCc1c(CCC)c(=N)c2ccccc2n1C | BT-549 breast | inactive |
| Fc1ccc(Oc2ccc(Nc3ncnc4onc(-c5ccccc5)c34)cc2)cc1 | BT-549 breast | inactive |

[Q] I'd appreciate the recorded outcome for COC(=O)/C(CCC=C(C)C)=C1\[C@@H](OC(C)=O)C[C@@]2(C)[C@H]1C[C@@H](O)[C@H]1[C@@]3(C)CC[C@H](NCCO)[C@@H](C)[C@@H]3CC[C@@]12C from this test.
[A] inactive

[Q] Please let me know the test result on file for O=C(c1nc2ccccc2[nH]1)C1C(c2ccc(F)cc2)C2CC3CCCCC3N2[C@@]12C(=O)Nc1ccc(Cl)cc12 (stereo partly specified) .
[A] inactive

[Q] Would you mind telling me which call this test gave COc1cc(CNC(=O)c2ccsc2Nc2ccnc(C(F)(F)F)c2)ccc1O ?
[A] inactive

[Q] What did the test return for O=S(=O)(c1ccccc1)n1cc2c(c1-c1ccccc1)CCc1sc(Nc3ccccc3)nc1-2 ?
[A] inactive

[Q] What did this assay record as the result for O=c1cc(-c2ccccc2)oc2cc(OCc3cn(Cc4ccc(F)cc4)nn3)cc(OCc3cn(Cc4ccc(F)cc4)nn3)c12 ?
[A] inactive

Source of measurements: PubChem BioAssay (NCI)
